experimental.target: Mitogen-activated protein kinase kinase kinase 12 (Homo sapiens)
Sequence (Q12852 whole entry): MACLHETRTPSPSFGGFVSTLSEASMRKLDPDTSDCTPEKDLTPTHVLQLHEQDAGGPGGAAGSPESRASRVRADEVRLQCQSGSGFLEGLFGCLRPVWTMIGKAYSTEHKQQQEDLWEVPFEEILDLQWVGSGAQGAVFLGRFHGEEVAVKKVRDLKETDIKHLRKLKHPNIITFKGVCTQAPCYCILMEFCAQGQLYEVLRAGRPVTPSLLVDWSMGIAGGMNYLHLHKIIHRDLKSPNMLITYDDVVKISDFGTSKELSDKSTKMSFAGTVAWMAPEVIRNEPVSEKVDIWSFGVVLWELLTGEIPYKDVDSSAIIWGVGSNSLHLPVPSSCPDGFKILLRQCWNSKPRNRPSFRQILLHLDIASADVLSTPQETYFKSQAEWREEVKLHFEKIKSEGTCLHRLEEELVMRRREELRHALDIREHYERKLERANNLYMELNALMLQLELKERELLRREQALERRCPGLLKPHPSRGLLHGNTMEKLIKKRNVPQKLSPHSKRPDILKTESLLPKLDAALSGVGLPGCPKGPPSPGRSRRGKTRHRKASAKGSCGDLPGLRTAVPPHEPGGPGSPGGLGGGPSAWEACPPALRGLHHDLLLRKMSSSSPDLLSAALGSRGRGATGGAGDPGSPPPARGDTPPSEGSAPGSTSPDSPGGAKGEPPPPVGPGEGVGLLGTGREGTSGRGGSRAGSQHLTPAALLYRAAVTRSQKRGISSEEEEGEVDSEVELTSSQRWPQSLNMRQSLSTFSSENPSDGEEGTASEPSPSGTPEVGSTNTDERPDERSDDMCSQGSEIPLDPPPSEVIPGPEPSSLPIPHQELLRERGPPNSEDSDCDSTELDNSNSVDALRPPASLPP
experimental.protocol: Inhibition of doxycycline inducible human DLK transfected in HEK293 cells assessed as JNK phosphorylation after […] by Hoechst-33342 staining-based assay
Type: cell-based
Task for the reader: assign each of the following compounds its reported IC50.
One number for each entry, in nM.

Hello, please tell me recorded IC50 for this one: `CC(C)n1nc(-c2cnc(N)c(OC(F)(F)F)c2)cc1[C@H]1[C@@H]2CN(C3COC3)C[C@@H]21`
195

Please go through the list and note IC50 for each compound.
1. CC(C)n1nc(-c2cnc3[nH]cc(Cl)c3c2)cc1C1CCN(C2COC2)CC1
2. Cc1c[nH]c2ncc(-c3cc(C4CCN(C5COC5)CC4)n(C(C)C)n3)cc12
3. CCn1nc(-c2cnc(N)c(C(F)(F)F)c2)cc1[C@H]1[C@@H]2CN(C3COC3)C[C@@H]21
4. Nc1ncc(-c2cc([C@H]3[C@@H]4CN(C5COC5)C[C@@H]43)n(CC3CC3)n2)cc1C(F)(F)F
5. CC(C)n1nc(-c2cnc(N)c(C(F)(F)F)c2)cc1[C@H]1[C@@H]2CN(CC(F)F)C[C@@H]21
6. Nc1ncc(-c2cc([C@H]3[C@@H]4CN(C5COC5)C[C@@H]43)n(CC3CCCC3)n2)cc1C(F)(F)F
7. CC(C)n1nc(-c2cnc3[nH]cc(C(F)(F)F)c3c2)cc1C1CCN(C2COC2)CC1

1. 574
2. 303
3. 406
4. 144
5. 611
6. 202
7. 485
